target: Glc(a1-6)Glc(a1-6)Glc(a1-6)Glc; assay: glycan array binding signal (z-score within array); higher = stronger binding; conditions: glycan notation: IUPAC condensed, linker removed
Only a selection was taken, and the strongest signals are over-represented in it overall.
test_readout: glycan array binding signal (z-score)
Reply with just the number.

Use these answered entries as a reference point.
Query :: // glycan array binding signal (z-score) lookup, key: Epf (Streptococcus pyogenes) (protein) GDHGPEFNGVMVVKAAEAEELPDDLMNFKGTWEVSADGSSGRFFSKGATDSYVFHLIPAKDVKKPGWREHNEVKDSYIKIDKQSIAARYKTSTTAPYSVAFKVNTKSLIKDHDYKITFEQGQIASGITVDYRIGSAFNKTTDDSFKISDESKYASNVKIEGEEQGFKQREQGDKTISFRTLKEGPMSLVLLSKVEKKPQGDLDVEFKNLKIIDVTNPSQLDKGVAYVGNKNVQLTLKSDDGRTNFEGDEISLFNSRGELLQTVTVTKDQQNPISITLSEDQAKSLKNKEKLKVSIKQKQSKKTSKDFFFEVGIDPKVEAKQKEKLLELDKVKKQIEDSINGDAWLPEKPVDLQGDHGLSAWSHPQFEK
Result :: 0

Query :: // glycan array binding signal (z-score) lookup, key: Pwp7 (Candida glabrata) (protein) MGSSHHHHHHSSGLVPRGSHMASKNPVDFPNLCQYPNLDGAVAGFDTEIYNADPSILINFSLWPILQFPKEWHKTIGRAITTQTNFKLPASDTTLFGVSIPTQNILIEFRGYFIPPKSGTYTFALYLTDDGSAMFLGNDAAFPCGNITSWSNPTNDQVSVSDYDPKKKTLTVYMVAGVAYPLRIAYYNREKGGSLTASFVDPDGLTHSDWNGYIWTLPSCDNCKYS
Result :: 1.4

Query :: // glycan array binding signal (z-score) lookup, key: BabA (Helicobacter pylori), O52269_HELPY (protein) AEDDGFYMSAGYQIGEAAQMVKNTKGIQELSDNYENLSNLLTRYSTLNTLIKLSADPSAVNAARENLGASAKNLIGDTKNSPAYQAVLLAINAAVGFWNVVGYVTQCGGNANGQKSTSSTTIFNNEPGYRSTSITCSLNGHMPGYYGPMSIENFKKLNEAYQILQTALKNGLPALKENNGTVNVTYSYTCSGEGNDNCSLQTTGVTNQNNGTKTETQTIDGKSVTTTISSKVVDSQ
Result :: 0.59

Continuing:
Query :: // glycan array binding signal (z-score) lookup, key: LlpA (Burkholderia cenocepacia) (protein) MGSSHHHHHHSSGLVPRGSHKILGSNETLSAGNVVYSDNGQYHLAMQTDGNLVVYGPTGAVWQSQTSGSGGNRAVMQGDGNLVIYRADNTAAWSSKTAHPGAFLAVQDDGNVVIYWPRPAWASNTSDPATQQSAESKYLASGSTMSAGQTVTVAQYMLVFQADGNLVLYKNGGNPIWSTGTQGKGATYAVMQSDGNFVIYAGSTALWSTKTNGANGAQLVLQSDGNLVIYAPTAAWSTKFGLVTAPTSTSTSNNGPGSGICVGVCPPHPLNGNPFSPVGVGTTGLGFPTPGYPGAAF
Result :: 0.011
